Molecular target: STAT3 (Homo sapiens)
Construct: plasmid pSTAT3-TA-luc), which contains a stably operating STAT3 promoter; endogenous in cells
Sequence (P40763 whole entry): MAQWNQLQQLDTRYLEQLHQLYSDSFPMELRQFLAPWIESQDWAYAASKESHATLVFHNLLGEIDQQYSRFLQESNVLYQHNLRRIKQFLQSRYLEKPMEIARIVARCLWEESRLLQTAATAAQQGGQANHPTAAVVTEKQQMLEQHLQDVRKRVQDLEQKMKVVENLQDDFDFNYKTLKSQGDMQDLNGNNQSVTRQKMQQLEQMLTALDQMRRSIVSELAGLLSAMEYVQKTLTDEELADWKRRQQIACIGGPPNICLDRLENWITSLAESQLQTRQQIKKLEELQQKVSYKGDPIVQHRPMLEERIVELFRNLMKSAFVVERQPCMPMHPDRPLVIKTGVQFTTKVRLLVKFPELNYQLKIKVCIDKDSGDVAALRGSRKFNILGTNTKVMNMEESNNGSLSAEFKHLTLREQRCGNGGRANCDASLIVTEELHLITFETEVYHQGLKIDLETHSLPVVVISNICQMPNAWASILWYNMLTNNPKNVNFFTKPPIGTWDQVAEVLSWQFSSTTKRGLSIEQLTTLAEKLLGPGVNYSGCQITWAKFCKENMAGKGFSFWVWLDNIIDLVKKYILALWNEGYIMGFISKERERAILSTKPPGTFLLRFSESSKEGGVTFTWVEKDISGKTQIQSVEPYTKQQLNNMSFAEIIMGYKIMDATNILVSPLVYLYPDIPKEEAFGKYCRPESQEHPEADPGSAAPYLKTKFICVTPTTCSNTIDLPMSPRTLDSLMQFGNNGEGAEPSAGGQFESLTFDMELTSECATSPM
Test: STAT3 reporter gene assay (luciferase), LNCaP stable cell line (pSTAT3-TA-luc), IL-6 stimulation
Format: cell-based
// classify: if (IC50 < 6 µM) 1 (yes) else 0 (no)

CC(C)(c1cccc(NC(=O)c2cc3cc(NS(C)(=O)=O)ccc3o2)c1)c1ccc(F)cc1F; 1 (yes)
CC(C)COc1cc(NC(=O)c2cc3ccc(NS(C)(=O)=O)cc3[nH]2)cc(C(F)(F)c2cccc(C#N)c2)c1; 1 (yes)
CC(C)Oc1cc(OC(F)(F)F)cc(C(C)(C)c2cc(Cl)cc(NC(=O)c3cc4cc(NS(C)(=O)=O)c(F)cc4s3)c2)c1; 1 (yes)
COC(=O)c1ccc(Cl)c(-c2ccnc(NC(=O)c3cc4ccc(NS(C)(=O)=O)cc4[nH]3)c2)c1; 1 (yes)
CS(=O)(=O)Nc1ccc2cc(C(=O)Nc3cc(-c4ccc(F)cc4F)cc(N4CCOCC4)c3)[nH]c2c1; 0 (no)
COc1ccc(C(F)(F)F)c(-c2cccc(NC(=O)c3cc4ccc(NS(C)(=O)=O)cc4[nH]3)c2)c1; 0 (no)
COc1cc(NS(C)(=O)=O)cc2cc(C(=O)Nc3cccc(C(C)(C)c4ccc(F)cc4)c3)oc12; 0 (no)

----------
Listing of recorded log10(IC50) by entry.
System: LNCaP
Experiment: Cell growth inhibition assay, prostate cancer cell line LNCaP (medium with 10 ng/mL IL-6)
Type: cell-based
Conditions: Homo sapiens, medium supplemented with 10 ng/mL of IL-6, 10,000 cells/well
OBSERVATION_TYPE: log10(IC50) (log10 of the value in µM)

COc1cc(OC(F)(F)F)cc(C(C)(C)c2cc(Br)cc(NC(=O)c3cc4cnc(NS(C)(=O)=O)cc4[nH]3)c2)c1; -0.12
CC(C)(c1cc(Br)cc(NC(=O)c2cc3cc(NS(C)(=O)=O)ccc3s2)c1)c1cc(OC(F)(F)F)cc(OC(F)(F)C(F)F)c1; -1.55
C=CCOc1cc(OC(F)(F)F)cc(C(C)(C)c2cc(Cl)cc(NC(=O)c3cc4cc(NS(C)(=O)=O)ccc4s3)c2)c1; -1.42
COc1cc(NC(=O)c2cc3ccc(NS(C)(=O)=O)cc3[nH]2)cc(-c2ccc(F)cc2F)c1; 0.57
CN(c1ccc2cc(C(=O)Nc3cccc(-c4ccc(F)cc4F)c3)n(C)c2c1)S(C)(=O)=O; 0.54
CC(C)Oc1cc(OC(F)(F)F)cc(C(C)(C)c2cc(I)cc(NC(=O)c3cc4cc(NS(C)(=O)=O)ccc4s3)c2)c1; -1.60
Cc1ccc(Oc2cc(Cl)cc(NC(=O)c3cc4cc(NS(C)(=O)=O)c(Cl)cc4s3)c2)s1; -1.44
CN(C(=O)c1cc2ccc(NS(C)(=O)=O)cc2[nH]1)c1cccc(-c2ccc(F)cc2F)c1; 0.43
C#Cc1cc(NC(=O)c2cc3ccc(NS(C)(=O)=O)cc3[nH]2)cc(C(C)(C)c2ccc(F)cc2)c1; 0.08
CS(=O)(=O)Nc1cc2cc(C(=O)Nc3cc(Cl)cc(Oc4ccc(Cl)c(F)c4)c3)sc2cc1Cl; -1.89
CC(C)Oc1cc(CN2CCN(c3noc(C(C)C)n3)CC2)cc(C(C)(C)c2cc(Cl)cc(NC(=O)c3cc4cc(NS(C)(=O)=O)ccc4s3)c2)c1; -0.92
